These data points were gathered from patent US20210040184A1.

- tgt: Clade B BaL gp120 protein (HIV-1 Clade B, BaL)
- runDescription: BLI (Octet), IgG on anti-hIgG Fc sensor, gp120 analyte, 1:1 fit
parameterMeasured: fold (KD vs average of 4 runs of L1A2) (fold)
Your answer is read as fold, so omit the unit and give the number.

Germ6 (antibody, V domains shown) VH: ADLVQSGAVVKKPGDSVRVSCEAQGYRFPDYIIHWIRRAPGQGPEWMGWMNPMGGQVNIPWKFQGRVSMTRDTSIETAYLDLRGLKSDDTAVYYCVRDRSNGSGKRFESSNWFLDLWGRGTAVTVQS VL: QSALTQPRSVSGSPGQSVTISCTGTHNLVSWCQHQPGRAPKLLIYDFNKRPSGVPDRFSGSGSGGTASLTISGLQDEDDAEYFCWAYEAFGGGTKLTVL : 1.7

Moving on to the next binder.
Prompt: // lookup fold (KD vs average of 4 runs of L1A2) for Hydro2 (antibody, V domains shown) VH: ADLVQSGAVVKKPGDSVRISCEAQGYRFPDYIIHWIRRAPGQGPEWMGWMNPMGGQVNIPQKFQGRVSMTRDTSIETAFLDLRGLKSDDTAVYYCVRDRSNGSGKRFESSNWFLDLWGRGTAVTIQS VL: QSALTQPRSVSASPGQSVTISCTGTHNLVSWCQHQPGRAPKLLIYDFNKRPSGVPDRFSGSGSGGTASLTITGLQDDDDAEYFCWAYENFGGGTKLTVL
Response: 1.77
